target: T1, human EphA4 (Homo sapiens, UniProt P54764); assay: Affinity of humanized antibodies by SPR (Biacore T200); type: binding; settings: human EphA4 extracellular region-SEAP-His; KD=kd/ka
T1 construct: made in house; not restated for the human SEAP-His protein
T1 sequence (P54764 20-547): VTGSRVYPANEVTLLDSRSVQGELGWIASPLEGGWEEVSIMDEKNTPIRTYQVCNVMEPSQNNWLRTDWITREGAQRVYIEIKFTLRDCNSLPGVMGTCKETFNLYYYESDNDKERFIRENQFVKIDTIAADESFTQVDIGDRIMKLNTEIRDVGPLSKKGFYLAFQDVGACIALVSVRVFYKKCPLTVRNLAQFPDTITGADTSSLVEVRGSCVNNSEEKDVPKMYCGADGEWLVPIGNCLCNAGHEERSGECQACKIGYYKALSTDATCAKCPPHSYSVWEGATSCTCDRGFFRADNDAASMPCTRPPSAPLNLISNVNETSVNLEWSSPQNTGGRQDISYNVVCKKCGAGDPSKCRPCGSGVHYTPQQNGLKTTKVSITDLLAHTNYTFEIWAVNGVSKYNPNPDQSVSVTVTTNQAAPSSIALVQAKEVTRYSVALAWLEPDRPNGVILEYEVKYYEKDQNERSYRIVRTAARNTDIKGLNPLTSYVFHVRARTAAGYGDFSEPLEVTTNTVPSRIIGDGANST
property.measured: pKd
Reminder that pKd means the negative base-10 logarithm of the concentration expressed in mol/L.

Query pKd for 157 (antibody, V domains shown, synthetic humanized antibody heavy chain variable region sequence; synthetic humanized antibody light chain variable region sequence) VH: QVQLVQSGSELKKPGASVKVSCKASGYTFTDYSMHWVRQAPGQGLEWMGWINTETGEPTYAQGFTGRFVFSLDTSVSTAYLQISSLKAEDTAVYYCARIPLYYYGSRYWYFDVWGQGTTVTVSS VL: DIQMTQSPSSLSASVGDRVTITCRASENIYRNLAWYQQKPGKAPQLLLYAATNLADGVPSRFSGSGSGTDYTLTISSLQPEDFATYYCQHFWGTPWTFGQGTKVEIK 8.70
